# growth inhibition values compiled below
experiment: NCI Yeast Anticancer Drug Screen. Data for the sgs1 mgt1 strain (AID 161);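 note: 0% = growth of cultures given vehicle only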; conditions: S. cerevisiae sgs1 mgt1 strain, at 50.0 µM, hits give high values
About 79,000 compounds went through this panel and 15% of them were active in at least one assay; those are over-represented in the sample as a whole.
Value expressed in %; do not type the unit.

N#C/C(c1nc2ccccc2[nH]1)=c1\s/c(=C(/N)O)c(=N)n1-c1ccccc1 :: -32.4
O=C(c1ccccc1Br)C(F)(F)F :: -18.4
Nc1nc2c(=O)[nH]c(=O)[nH]c2n1C1OC(CO)C(O)C1O (stereo not given) :: 0.35
CC(=O)Nc1cc([N+](=O)[O-])c2[nH]c(=O)c3ccccc3c2c1 :: -12.4
NC(=O)/C=C1\NC(=O)CS1 :: 1
COc1ccc(C=Nc2c(O)ccc3c2CCCC3)cc1OC :: -6.1

Q: Which value of growth inhibition has been reported for Cc1ccc(S(=O)(=O)N2CN(S(=O)(=O)c3ccc(C)cc3)CN(S(=O)(=O)c3ccc(C)cc3)C2)cc1 in the records?
A: -22.8

Q: Which value of growth inhibition has been reported for CC1CCCCN1P(N1CCCCC1C)N1CCCCC1C (stereo not given) in the records?
A: 29

Q: Which value of growth inhibition has been reported for O=C(CCC1CCCC1)Oc1ccccc1C(=O)O in the records?
A: 7.1

Q: Which value of growth inhibition has been reported for CC1(C)C([N+](C)(C)C)CS1(=O)=O (stereo not given) in the records?
A: -13.8
